Answer each item with its documented IC50.
Biological target: PD-1/PD-L1 (Homo sapiens)
Construct: TVMV protease site linker (C)
Sequence (Q9NZQ7 18-239): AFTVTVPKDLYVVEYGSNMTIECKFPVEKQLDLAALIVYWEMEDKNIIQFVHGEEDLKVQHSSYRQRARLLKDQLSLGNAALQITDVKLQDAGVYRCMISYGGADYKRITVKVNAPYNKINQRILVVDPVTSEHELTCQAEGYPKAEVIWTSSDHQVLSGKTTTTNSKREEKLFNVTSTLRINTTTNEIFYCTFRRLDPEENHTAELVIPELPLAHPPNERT
Assay: PD-1/PD-L1 Homogenous Time-Resolved Fluorescence (HTRF) binding assay
Conditions: PD-L1-His 10 nM, PD-1-Ig 20 nM

CC(=O)NC1CCN(CCCOc2cccc(-c3cccc(COc4cc(OCc5cncc(C#N)c5)c(CN5CCC(c6nnn[nH]6)C5)cc4Cl)c3C)c2Cl)CC1 (stereo not drawn) has a reported IC50 of 1.9 nM

According to the records, this compound `Cc1c(COc2cc(OCc3cncc(C#N)c3)c(CNCc3cnco3)cc2Cl)cccc1-c1cccc(OCCCN2CC[C@@H](O)C2)c1C` displays IC50 of 2.5 nM

Lookup result for `Cc1c(COc2cc(OCc3cncc(C#N)c3)c(CN(C)Cc3cncnc3)cc2Cl)cccc1-c1cccc(OCCCN2CC[C@@H](O)C2)c1C` ; measured IC50: 2.5 nM

Sample `Cc1c(COc2cc(OCc3cncc(C#N)c3)c(CNCc3ccnc(C#N)n3)cc2Cl)cccc1-c1cccc(OCCCN2CC[C@@H](O)C2)c1C` ; IC50 observed: 8.2 nM

Entry CC(=O)NC1CCN(CCCOc2cccc(-c3cccc(COc4cc(OCc5cncc(C#N)c5)c(CN5CCCC(c6nnn[nH]6)C5)cc4Cl)c3C)c2C)CC1 (stereo not drawn) , IC50 reported as 0.5 nM

So, `CCN(Cc1nnn[nH]1)Cc1cc(Cl)c(OCc2cccc(-c3cccc(OCCCN4CC[C@@H](O)C4)c3C)c2C)cc1OCc1cncc(C#N)c1` ? Its IC50 was 3 nM

###

Give measured pIC50 for each item. Keep answers brief.
Molecular target: PD-1/PD-L1 (Homo sapiens)
Construct: TVMV protease site linker (C)
Experiment: PD-1/PD-L1 Homogenous Time-Resolved Fluorescence (HTRF) binding assay
Settings: PD-L1-His 10 nM, PD-1-Ig 20 nM
Text: The ability of the compounds of the invention to bind to PD-L1 was investigated using a PD-1/PD-L1 Homogenous Time-Resolved Fluorescence (HTRF) binding assay. Homogenous Time-Resolved Fluorescence (HTRF) binding assay. The interaction of PD-1 and PD-L1 can be assessed using soluble, purified preparations of the extracellular domains of the two proteins. […]
Scale: pIC50 equals -log10([C]), with [C] in mol/L.

Entry Cc1noc(C)c1CNCc1cc(Cl)c(OCc2cccc(-c3cccc(OCCCN4CC[C@@H](O)C4)c3C)c2C)cc1OCc1cncc(C#N)c1 [Example 2526] — recorded pIC50 = 8.52

// sample Cc1c(COc2cc(OCc3cncc(C#N)c3)c(CN3CCc4[nH]cnc4C3)cc2Cl)cccc1-c1cccc(OCCCN2CC[C@@H](O)C2)c1C [Example 2515] , its pIC50 was 8.42

pIC50 in this record for Cc1c(COc2cc(OCc3cncc(C#N)c3)c(CN(C)Cc3csc(N)n3)cc2Cl)cccc1-c1cccc(OCC2CCCN(C)C2)c1Cl (stereo not drawn) [Example 2617] : 8.74

So for Cc1c(COc2cc(OCc3cncc(C#N)c3)c(CNC3CCc4[nH]ncc4C3)cc2Cl)cccc1-c1cccc(OCCCN2CC[C@@H](O)C2)c1C (stereo partly drawn) [Example 2563] , the logged pIC50 turned out to be 9.30

Record Cc1c(COc2cc(OCc3cncc(C#N)c3)c(CNCc3nc4ccccc4s3)cc2Cl)cccc1-c1cccc(OCCCN2CC[C@@H](O)C2)c1C [Example 2549] , field pIC50: 7.48

Documented pIC50 of CC(=O)NC1CCN(CCCOc2cccc(-c3cccc(COc4cc(OCc5cncc(C#N)c5)c(CNCCc5nnnn5C)cc4Cl)c3C)c2C)CC1 [Example 1049] : 8.60

For Cc1nc2c(s1)CN(Cc1cc(Cl)c(OCc3cccc(-c4cccc(OCCCN5CC[C@@H](O)C5)c4C)c3C)cc1OCc1cncc(C#N)c1)CC2 [Example 2503] the compound record lists pIC50 as 8.41

For this compound ( Cc1c(COc2cc(OCc3cncc(C#N)c3)c(CNCc3csc(N)n3)cc2Cl)cccc1-c1cccc(OCCCN2CC[C@@H](O)C2)c1C [Example 2520] ), measured pIC50 is 8.51

Lab note: measured pIC50 of Cc1c(COc2cc(OCc3cncc(C#N)c3)c(CN(C)Cc3cncs3)cc2Cl)cccc1-c1cccc(OCCCN2CC[C@@H](O)C2)c1C [Example 2534] was 8.47

So for Cc1[nH]cnc1COc1cc(OCc2cccc(-c3cccc(OCCCN4CC[C@@H](O)C4)c3C)c2C)c(Cl)cc1CNCc1ccnc(C#N)n1 [Example 2042] , the logged pIC50 turned out to be 7.05

The compound Cc1c(COc2cc(OCc3cncc(C#N)c3)c(CN(C)Cc3ncc[nH]3)cc2Cl)cccc1-c1cccc(OCCCN2CC[C@@H](O)C2)c1C [Example 2008] showed pIC50 equal to 9.30

Briefly, pIC50 measured for Cc1c(COc2cc(OCc3cncc(C#N)c3)c(CNCCc3nc4cc(Cl)ccc4[nH]3)cc2Cl)cccc1-c1cccc(OCC2CCCN(C)C2)c1Cl (stereo not drawn) [Example 2613] : 8.66

// Cc1c(COc2cc(OCc3cncc(C#N)c3)c(CN(C)Cc3cnccn3)cc2Cl)cccc1-c1cccc(OCCCN2CC[C@@H](O)C2)c1C [Example 2030] : pIC50 value = 8.96

So, Cc1c(COc2cc(OCc3cncc(C#N)c3)c(CNCc3cccnn3)cc2Cl)cccc1-c1cccc(OCCCN2CC[C@@H](O)C2)c1C [Example 2021] ? Its pIC50 was 8.22

# pIC50 (compound: Cc1c(COc2cc(OCc3cncc(C#N)c3)c(CNCc3cnccn3)cc2Cl)cccc1-c1cccc(OCCCN2CC[C@@H](O)C2)c1C [Example 2020] ) is 8.57

Cc1c(COc2cc(OCc3cncc(C#N)c3)c(CNCc3ncco3)cc2Cl)cccc1-c1cccc(OCC2CCCN(C)C2)c1Cl (stereo not drawn) [Example 2590] yielded pIC50 of 8.70

pIC50 for Cc1c(COc2cc(OCc3cncc(C#N)c3)c(CN(C)CCc3nc4ccccc4[nH]3)cc2Cl)cccc1-c1cccc(OCCCN2CC[C@@H](O)C2)c1C [Example 2508] is 8.21

Please fill in: pIC50 reported for CC(=O)NC1CCN(CCCOc2cccc(-c3cccc(COc4cc(OCc5cncc(C#N)c5)c(CN(C)Cc5nnn[nH]5)cc4Cl)c3C)c2C)CC1 [Example 1044] = 9.30

Item: Cc1n[nH]c(C)c1CNCc1cc(Cl)c(OCc2cccc(-c3cccc(OCCCN4CC[C@@H](O)C4)c3C)c2C)cc1OCc1cncc(C#N)c1 [Example 2570] | pIC50: 8.82

pIC50 measured on Cc1c(COc2cc(OCc3cncc(C#N)c3)c(CNCc3cocn3)cc2Cl)cccc1-c1cccc(OCCCN2CC[C@@H](O)C2)c1C [Example 2539] = 9.15

Form: compound = Cc1c(COc2cc(OCc3cncc(C#N)c3)c(CN(C)Cc3cnc[nH]3)cc2Cl)cccc1-c1cccc(OC2CCN(C)CC2)c1Cl [Example 2049] ; pIC50 = 8.80

Field pIC50 (entry Cc1c[nH]c(CN(C)Cc2cc(Cl)c(OCc3cccc(-c4cccc(OCCCN5CC[C@@H](O)C5)c4C)c3C)cc2OCc2cncc(C#N)c2)n1 [Example 2024] ) reads 9.22

Measured pIC50, Cc1c(COc2cc(OCc3cncc(C#N)c3)c(CNCCc3nnnn3C)cc2Cl)cccc1-c1cccc(OCCCN2CC[C@@H](O)C2)c1C [Example 1014] : 8.54
